# tested_on: LD3 in the presence of Drug-1 (Homo sapiens, UniProt Q07817, DEL45-84/F105I/R102E)
# Construct: 6xHis (N)
# Sequence (Q07817 with tags, fused parts or gaps DEL45-84/R102E/F105I limits assumed): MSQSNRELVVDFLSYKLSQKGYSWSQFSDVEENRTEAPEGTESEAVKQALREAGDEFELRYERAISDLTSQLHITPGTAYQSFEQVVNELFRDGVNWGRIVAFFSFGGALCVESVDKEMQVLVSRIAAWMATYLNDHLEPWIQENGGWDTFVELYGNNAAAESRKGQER
# test: SPR pre-screening and competition of Drug-1 resistant Bcl-XL mutants binding LD3
# condition_details: Fig S10d; iBcl-XL_v3; best-fit, inhibitor vs. response (three parameters)
readout_name: pIC50
Please report pIC50 as the negative decimal logarithm of the molar concentration, giving only the number.

Ask | Please report the recorded pIC50 for "CN(C)CC#Cc1ccc(OCCCc2sc(N3CCc4cccc(C(=O)Nc5nc6ccccc6s5)c4C3)nc2C(=O)O)c(F)c1" .
Reply | 6.15
